Where a name gives a salt, the structure may show the parent alone.

compound	melting point
Cn1cc(-c2ccc(Cl)c(C(=O)NCC34CC5CC(CC(C5)C3)C4)c2)c(C(=O)O)n1 [Example 31]	166 to 175 °C (dec.)
O=C(O)c1cccc(-c2cc(C(=O)NCC34CC5CC(CC(C5)C3)C4)c(Cl)cn2)c1 [Example 7]	200 to 202 °C
Cc1ccc(-c2ccc(Cl)c(C(=O)NCC34CC5CC(CC(C5)C3)C4)c2)nc1C(=O)O [Example 71]	180 to 185 °C
CN(CCO)c1nc(-c2ccc(Cl)c(C(=O)NCC34CC5CC(CC(C5)C3)C4)c2)ccc1C(=O)O [Example 54]	121 to 124 °C
O=C(O)COc1cccnc1-c1ccc(Cl)c(C(=O)NCC23CC4CC(CC(C4)C2)C3)c1 [Example 46]	133 to 137 °C
C[C@@H](Oc1ccccc1-c1ccc(Cl)c(C(=O)NCC23CC4CC(CC(C4)C2)C3)c1)C(=O)O [Example 39]	133 to 137 °C
O=C(NCC12CC3CC(CC(C3)C1)C2)c1cc(-c2ncccc2C(=O)O)ccc1Cl [Example 10]	169 to 172 °C
O=C(O)c1coc(-c2ccc(Cl)c(C(=O)NCC34CC5CC(CC(C5)C3)C4)c2)n1 [Example 23]	254 to 257 °C
O=C(O)Cc1ncccc1-c1ccc(Cl)c(C(=O)NCC23CC4CC(CC(C4)C2)C3)c1 (as salt: sodium) [Example 58, monosodium salt]	186 to 187 °C (dec.)
CN(CC(=O)O)c1nccnc1-c1ccc(Cl)c(C(=O)NCC23CC4CC(CC(C4)C2)C3)c1 [Example 33]	151 to 153 °C (dec.)
O=C(NCC12CC3CC(CC(C3)C1)C2)c1cc(-c2cccnc2N2CCC(C(=O)O)CC2)ccc1Cl [Example 59]	110 to 115 °C
O=C(O)c1ccnc(-c2ccc(Cl)c(C(=O)NCC34CC5CC(CC(C5)C3)C4)c2)c1 [Example 12]	284 to 287 °C
Cc1ccc(-c2cccc(C(=O)O)n2)cc1C(=O)NCC12CC3CC(CC(C3)C1)C2 [Example 69]	227 °C
CS(=O)(=O)Nc1nccnc1-c1ccc(Cl)c(C(=O)NCC23CC4CC(CC(C4)C2)C3)c1 [Example 8]	245 °C (dec.)
C[C@H](Oc1ccc(-c2ccc(Cl)c(C(=O)NCC34CC5CC(CC(C5)C3)C4)c2)cc1)C(=O)O [Example 43]	145 to 150 °C
N#CNc1nccnc1-c1ccc(Cl)c(C(=O)NCC23CC4CC(CC(C4)C2)C3)c1 [Example 5]	110 to 115 °C (dec.)
O=C(O)Cc1ccccc1-c1ccc(Cl)c(C(=O)NCC23CC4CC(CC(C4)C2)C3)c1 [Example 37]	200 to 202 °C
Cc1cnc(C(=O)O)c(-c2ccc(Cl)c(C(=O)NCC34CC5CC(CC(C5)C3)C4)c2)c1 [Example 64]	125 to 130 °C
CS(=O)(=O)Nc1cccc(-c2ccc(Cl)c(C(=O)NCC34CC5CC(CC(C5)C3)C4)c2)n1 [Example 27]	115 to 120 °C
CC(=O)Nc1ccc(-c2ccc(Cl)c(C(=O)NCC34CC5CC(CC(C5)C3)C4)c2)c(C)n1 [Example 73]	172 to 177 °C

====

compound.structure	melting point
O=C(O)CNc1cccnc1-c1ccc(Cl)c(C(=O)NCC23CC4CC(CC(C4)C2)C3)c1	190 to 194 °C
Cc1ccc(-c2cccnc2N2CCC(C(=O)O)CC2)cc1C(=O)NCC12CC3CC(CC(C3)C1)C2	60 °C
O=C(NCC12CC3CC(CC(C3)C1)C2)c1cc(-c2c(F)cccc2C(=O)O)ccc1Cl	108 to 113 °C
O=C(O)COc1cccc(-c2ccc(Cl)c(C(=O)NCC34CC5CC(CC(C5)C3)C4)c2)c1	99 to 101 °C
C[C@H](Oc1cccc(-c2ccc(Cl)c(C(=O)NCC34CC5CC(CC(C5)C3)C4)c2)c1)C(=O)O	115 to 120 °C
C[C@H](Oc1ccccc1-c1ccc(Cl)c(C(=O)NCC23CC4CC(CC(C4)C2)C3)c1)C(=O)O	107 to 110 °C
O=C(NCC12CC3CC(CC(C3)C1)C2)c1cc(-c2nccnc2N2CCC(C(=O)O)CC2)ccc1Cl	136 to 140 °C
O=C(NCC12CC3CC(CC(C3)C1)C2)c1cc(-c2ccc(Cl)cc2C(=O)O)ccc1Cl	207 to 210 °C
O=C(O)c1cccc(-c2ccc(Cl)c(C(=O)NCC34CC5CC(CC(C5)C3)C4)c2)c1	255 to 257 °C
Cc1cccc(C(=O)O)c1-c1ccc(Cl)c(C(=O)NCC23CC4CC(CC(C4)C2)C3)c1	151 to 154 °C
Cc1ccc(-c2ccccc2C(=O)O)cc1C(=O)NCC12CC3CC(CC(C3)C1)C2	85 to 92 °C
O=C(O)c1cccc(-c2ccc(Cl)c(C(=O)NCC34CC5CC(CC(C5)C3)C4)c2)n1	170 to 173 °C
CS(=O)(=O)NC(=O)c1cccc(-c2ccc(Cl)c(C(=O)NCC34CC5CC(CC(C5)C3)C4)c2)n1	160 to 162 °C
O=C(O)CCOc1ccccc1-c1ccc(Cl)c(C(=O)NCC23CC4CC(CC(C4)C2)C3)c1	163 to 164 °C
O=C(O)COc1ccc(-c2ccc(Cl)c(C(=O)NCC34CC5CC(CC(C5)C3)C4)c2)cc1	136 to 140 °C
O=C(NCCC12CC3CC(CC(C3)C1)C2)c1cc(-c2ccccc2C(=O)O)ccc1Cl	114 to 117 °C
